Data origin: ChEMBL document CHEMBL5223105

methodDescription: Cytotoxicity against african green monkey Vero cells
Type: toxicity, cell-based
measurementParameters: chlorocebus sabaeus, read-out: LC50 (the source's name)
Below, each entry is listed alongside its reported CC50.
propertyMeasured: CC50 (µM)

[
  {
    "smi": "O=[N+]([O-])c1ccc(/C=N/N=c2\\[nH]nc(Cl)c3ccccc23)o1",
    "observedValue": 100
  },
  {
    "smi": "O=[N+]([O-])c1ccc(/C=N/N=c2\\[nH]nc(Cl)c3ccccc23)s1",
    "observedValue": 37
  }
]

====

Listed compounds paired with reported pIC50
System: Trypanosoma cruzi
methodDescription: Antitrypanosomal activity against Trypanosoma cruzi Tulahuen
Format: functional, organism-based
pIC50: −log10 of the molar value.
propertyMeasured: pIC50

[
  {
    "smi": "CC(=O)Nc1nnc(-c2ncc([N+](=O)[O-])n2C)s1",
    "observedValue": 5.13
  },
  {
    "smi": "Cn1c([N+](=O)[O-])cnc1-c1nnc(NC(=O)C(F)(F)F)s1",
    "observedValue": 4.47
  }
]

====

methodDescription: Cytotoxicity against mouse J774.2 cells
Assay type: toxicity, cell-based
propertyMeasured: CC50 (µM)

[
  {
    "smi": "CNCCOCCn1nc(OCc2ccccc2)c2cc([N+](=O)[O-])ccc21",
    "observedValue": 197
  },
  {
    "smi": "COc1nn(CCN)c2ccc([N+](=O)[O-])cc12",
    "observedValue": 489
  },
  {
    "smi": "O=[N+]([O-])c1ccc2c(c1)c(Oc1ccccc1)nn2CCBr",
    "observedValue": 588
  },
  {
    "smi": "Cn1nc(OCc2ccccc2)c2cc([N+](=O)[O-])ccc21",
    "observedValue": 179
  }
]

====

methodDescription: Selectivity index, ratio of CC50 for […] J774.2 cells to IC50 Leishmania braziliensis MHOM/BR/1975/M2904
Format: toxicity
measurementParameters: read-out: Ratio CC50/IC50

[
  {
    "smi": "COc1nn(CCN)c2ccc([N+](=O)[O-])cc12",
    "selectivity ratio": 60
  }
]

====

methodDescription: Selectivity index, ratio of EC50 for Trypanosoma cruzi epimastigotes to LC50 for african green monkey Vero cells
Assay type: toxicity
measurementParameters: Vero cells versus Trypanosoma cruzi epimastigotes, read-out: Selectivity Index

[
  {
    "smi": "O=[N+]([O-])c1ccc(/C=N/N=c2\\[nH]nc(Cl)c3ccccc23)o1",
    "selectivity ratio": 8.82
  },
  {
    "smi": "O=[N+]([O-])c1ccc(/C=N/N=c2\\[nH]nc(Cl)c3ccccc23)s1",
    "selectivity ratio": 5.14
  }
]
